TESTED_ON: human CYP1A2 (Homo sapiens)
Sequence (P05177 whole entry): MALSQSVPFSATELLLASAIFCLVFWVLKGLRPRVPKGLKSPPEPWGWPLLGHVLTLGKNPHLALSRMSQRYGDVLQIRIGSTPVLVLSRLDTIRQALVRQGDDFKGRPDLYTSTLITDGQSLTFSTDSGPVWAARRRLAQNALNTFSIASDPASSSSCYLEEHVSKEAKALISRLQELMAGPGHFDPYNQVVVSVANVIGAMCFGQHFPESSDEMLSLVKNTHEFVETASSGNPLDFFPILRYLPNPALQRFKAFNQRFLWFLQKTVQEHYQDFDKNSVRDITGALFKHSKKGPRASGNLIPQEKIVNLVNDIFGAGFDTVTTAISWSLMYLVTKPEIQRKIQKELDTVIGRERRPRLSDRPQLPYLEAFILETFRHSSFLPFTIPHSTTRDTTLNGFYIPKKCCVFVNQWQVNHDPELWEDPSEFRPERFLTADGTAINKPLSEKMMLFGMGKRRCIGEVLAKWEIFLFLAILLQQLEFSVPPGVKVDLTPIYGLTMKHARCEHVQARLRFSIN
EXPERIMENT_NOTES: biochemical
CONDITION_SET: CYP1A2 AC50 (half-maximal activity concentration)
Structures can show the parent of a compound that is named as a salt.
Classify: t when AC50 is strictly less than 20 µM; f when AC50 is not.

Answered cases to consult:
CN(C/C=C/c1ccccc1)Cc1cccc2ccccc12 [Naftifine hydrochloride] : t
O=C(c1ccccc1)c1ccccc1 : t
CC1CCC(C(C)C)C(OC(=O)c2ccccc2N)C1 (stereo not drawn) [Menthyl anthranilate] : t
Oc1c(Cl)cc(Cl)c(Cl)c1Cl : f

# evaluate next
Enquiry: Criterion: AC50 strictly below 20 µM. Is it met by `N#Cc1cc(I)c(O)c(I)c1` ?
Return: f

###

TESTED_ON: CYP3A4 (Homo sapiens, UniProt P08684)
Sequence (P08684 whole entry): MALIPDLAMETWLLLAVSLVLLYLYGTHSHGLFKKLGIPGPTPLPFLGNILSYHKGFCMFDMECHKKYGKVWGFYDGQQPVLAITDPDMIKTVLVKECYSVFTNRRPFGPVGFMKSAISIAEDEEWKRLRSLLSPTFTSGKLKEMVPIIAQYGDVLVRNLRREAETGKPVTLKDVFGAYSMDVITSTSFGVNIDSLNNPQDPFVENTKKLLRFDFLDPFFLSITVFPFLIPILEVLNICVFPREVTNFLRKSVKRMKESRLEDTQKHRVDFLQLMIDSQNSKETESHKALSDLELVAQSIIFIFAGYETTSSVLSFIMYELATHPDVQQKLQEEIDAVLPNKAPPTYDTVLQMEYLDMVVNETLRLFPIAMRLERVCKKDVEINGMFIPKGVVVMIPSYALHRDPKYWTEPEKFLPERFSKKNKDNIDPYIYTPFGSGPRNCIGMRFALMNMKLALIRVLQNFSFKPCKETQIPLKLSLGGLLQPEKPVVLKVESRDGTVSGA
EXPERIMENT_NOTES: biochemical
OUTCOME_MEASURE: log10(IC50) (log10 of the value in nM)
Quick note: numbers are log10 of IC50, with nM as the unit.

C=CCOc1cc(Cl)ccc1C(=O)NCCN(CC)CC [Alloclamide] : 4.23
C=CC(=O)OCCn1c(=O)n(CCOC(=O)C=C)c(=O)n(CCOC(=O)C=C)c1=O : 2.40

Consider the additional molecule presented here.
Enquiry: For CCC(=O)O[C@H]1[C@H](O[C@@H]2[C@@H](C)[C@H](O[C@H]3C[C@@](C)(OC)[C@@H](O)[C@H](C)O3)[C@@H](C)C(=O)O[C@H](CC)[C@@](C)(O)[C@H](O)[C@@H](C)C(=O)[C@H](C)C[C@@]2(C)O)O[C@H](C)C[C@@H]1N(C)C [Erythromycin estolate] , what is its reported log10(IC50)?
Return: 2.46

###

TESTED_ON: human CYP2C19 (Homo sapiens)
Sequence (P33261 whole entry): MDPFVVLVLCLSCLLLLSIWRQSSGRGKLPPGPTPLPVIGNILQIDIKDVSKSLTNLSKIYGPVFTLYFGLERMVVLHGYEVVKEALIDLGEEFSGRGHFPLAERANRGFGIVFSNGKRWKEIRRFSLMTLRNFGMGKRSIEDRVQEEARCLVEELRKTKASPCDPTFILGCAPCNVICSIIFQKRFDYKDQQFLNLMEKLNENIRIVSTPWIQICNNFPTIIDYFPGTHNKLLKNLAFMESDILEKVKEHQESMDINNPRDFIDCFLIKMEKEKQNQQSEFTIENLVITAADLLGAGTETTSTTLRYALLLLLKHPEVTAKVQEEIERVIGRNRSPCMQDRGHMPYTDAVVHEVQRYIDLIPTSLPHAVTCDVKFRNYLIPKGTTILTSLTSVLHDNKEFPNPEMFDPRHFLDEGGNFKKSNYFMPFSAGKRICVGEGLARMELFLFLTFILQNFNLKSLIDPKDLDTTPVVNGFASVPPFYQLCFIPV
EXPERIMENT_NOTES: biochemical
Counter-ions that a name gives are not always drawn.
IC50 reference
Just the number please, in µM, no unit attached.

Study these solved cases before continuing.
CN(C)[C@@H](CCOc1cccc2ccccc12)c1ccccc1 : 1.21
COc1cc(N)c(Cl)cc1C(=O)NC1CCN(Cc2ccccc2)CC1 [Clebopride maleate] : 38.9
CN(C)c1ccc(N=NS(=O)(=O)O)cc1 : 1.36
C#Cc1ccc(-c2ccccc2F)cc1 : 25.7
O=C(OCC(O)CO)c1ccccc1Nc1ccnc2c(C(F)(F)F)cccc12 (centres unmarked) : 0.35

Enquiry: // query IC50 value for entry Clc1cccc(C(c2ccc3[nH]cnc3c2)n2ccnc2)c1 (centres unmarked)
Return: 7.61

Enquiry: What does the data say about its IC50? Entry: `O=c1c2ccccc2oc2ccccc12`
Return: 29.7

###

TESTED_ON: human CYP2D6 (Homo sapiens, UniProt P10635)
Sequence (P10635 whole entry): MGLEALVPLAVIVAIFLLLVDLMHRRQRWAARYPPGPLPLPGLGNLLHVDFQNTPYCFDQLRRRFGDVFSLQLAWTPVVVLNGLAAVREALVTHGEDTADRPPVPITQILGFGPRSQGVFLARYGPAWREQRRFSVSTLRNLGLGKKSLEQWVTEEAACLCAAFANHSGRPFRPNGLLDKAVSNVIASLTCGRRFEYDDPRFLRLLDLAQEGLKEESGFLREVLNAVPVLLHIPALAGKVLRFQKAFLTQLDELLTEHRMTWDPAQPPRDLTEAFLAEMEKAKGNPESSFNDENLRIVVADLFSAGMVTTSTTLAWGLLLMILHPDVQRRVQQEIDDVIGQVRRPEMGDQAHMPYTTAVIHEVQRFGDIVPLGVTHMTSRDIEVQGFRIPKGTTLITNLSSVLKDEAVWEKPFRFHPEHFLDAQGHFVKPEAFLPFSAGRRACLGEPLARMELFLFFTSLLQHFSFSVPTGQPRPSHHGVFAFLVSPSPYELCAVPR
OUTCOME_MEASURE: CYP2D6 Efficacy (in parenthesis)

Some entries whose results are on file:
CCCCCCCCCCCCCCCCCC(=O)O.OCCN(CCO)CCO [Triethanolamine stearate] : 35.34 ± 0 (-82 ± 6) %
CCC(OC(C)=O)C(CC(C)NC)(c1ccccc1)c1ccccc1.Cl (stereo not shown) : 15.52 ± 2.14 (-95 ± 2) %

Enquiry: Tell me reported CYP2D6 Efficacy (in parenthesis) for `Cc1cc(CCC(=O)OCCOCCOCCOC(=O)CCc2cc(C)c(O)c(C(C)(C)C)c2)cc(C(C)(C)C)c1O` , tested with human CYP2D6 (Homo sapiens, UniProt P10635).
Return: 9.78 ± 0 (-91 ± 3) %

Enquiry: Checklist item: CYP2D6 Efficacy (in parenthesis) tested on human CYP2D6 (Homo sapiens, UniProt P10635), entry Oc1cc2ccccc2c2ccccc12 [9-Phenanthrol] , value?
Return: 2.53 ± 0.29 (-109 ± 3) %

Enquiry: Item: `CCCCCCCCCCCCCC[P+](CCCC)(CCCC)CCCC.CCCCCCCCCCCCc1ccc(S(=O)(=O)[O-])cc1` Test system: human CYP2D6 (Homo sapiens, UniProt P10635) Read-out: CYP2D6 Efficacy (in parenthesis) Value: ?
Return: 0.21 ± 0.1 (-107 ± 3) %

Enquiry: # value lookup — system human CYP2D6 (Homo sapiens, UniProt P10635), readout CYP2D6 Efficacy (in parenthesis), item C=CCOC(Cn1ccnc1)c1ccc(Cl)cc1Cl.O=S(=O)(O)O (stereo not shown) [Imazalil sulfate]
Return: 5.1 ± 0.35 (-106 ± 4) %

Enquiry: Hi! What's the reported CYP2D6 Efficacy (in parenthesis) for O=C(Nc1ccccc1SSc1ccccc1NC(=O)c1ccccc1)c1ccccc1 [2,2'-Dibenzoylaminodiphenyl disulfide] on human CYP2D6 (Homo sapiens, UniProt P10635)?
Return: 37.5 ± 45.35 (15 ± 47) %

Enquiry: Item: `Nc1nc2ccccc2n1Cc1ccc(F)cc1` Test system: human CYP2D6 (Homo sapiens, UniProt P10635) Read-out: CYP2D6 Efficacy (in parenthesis) Value: ?
Return: 0.67 ± 0.04 (-102 ± 1) %

Enquiry: What reported CYP2D6 Efficacy (in parenthesis) corresponds to `CCOP(=O)([O-])OCC.CCn1cc[n+](C)c1` on human CYP2D6 (Homo sapiens, UniProt P10635)?
Return: 0.61 ± 0.29 (-97 ± 6) %

Enquiry: CYP2D6 Efficacy (in parenthesis) of OC(c1ccc(Cl)cc1)(c1ccc(Cl)cc1)c1cccnc1 [Parinol] on human CYP2D6 (Homo sapiens, UniProt P10635)?
Return: 14.17 ± 5.05 (-105 ± 7) %

###

TESTED_ON: human CYP2D6 (Homo sapiens, UniProt P10635)
EXPERIMENT_NOTES: biochemical
CONDITION_SET: CYP2D6 IC50 (half-maximal inhibitory concentration)
pIC50: −log10 of the molar value. Counter-ions that a name gives are not always drawn.
Assign Met whenever pIC50 does not fall below 5; assign Not met whenever it does.

Worked cases, answers included:
CC(N/C(=N\C#N)Nc1ccncc1)C(C)(C)C (stereo not drawn) [Pinacidil monohydrate] : Not met
c1ccc(-c2ccc(C(c3ccccc3)n3ccnc3)cc2)cc1 (stereo not drawn) : Met
CC1CCCC(C)N1CCCC(O)(c1ccccc1)c1ccccn1 (stereo not drawn) : Met
CC(CCc1ccccc1)NCC(O)c1ccc(O)c(C(N)=O)c1 (stereo not drawn) [Labetalol hydrochloride] : Met
CN(C)c1ccc(C(=N)c2ccc(N(C)C)cc2)cc1 [Auramine hydrochloride] : Met

Enquiry: Test whether the compound OC(Cn1cncn1)(c1ccc(F)cc1)c1ccccc1F (stereo not drawn) records pIC50 of 5 or higher.
Return: Not met

Enquiry: Could you please find out whether Clc1ccccc1-c1nc(-c2ccncc2)no1 [Pifexole] has pIC50 that meets 5 or exceeds it?
Return: Not met

Enquiry: // inclusive: pIC50 at least 5? input: Fc1ccc([C@]2(Cn3cncn3)O[C@H]2c2ccccc2Cl)cc1 (racemic)
Return: Not met

###

CYP2D6 IC50 (half-maximal inhibitory concentration), human CYP2D6 (Homo sapiens), per-entry values.
OUTCOME_MEASURE: CYP2D6 IC50 (half-maximal inhibitory concentration)

CO/N=C(/C(=O)OC)c1ccccc1COc1ccccc1C : Inactive
ClC(Cl)=C(c1ccc(Cl)cc1)c1ccc(Cl)cc1 : Inactive
Clc1ccc(C(c2ccccc2Cl)C(Cl)(Cl)Cl)cc1 (stereo not shown) : Inactive
Clc1ccc2c(c1)Nc1ccccc1S2 : Inactive

###

TESTED_ON: human CYP2C19 (Homo sapiens)
OUTCOME_MEASURE: CYP2C19 AC50 (half-maximal activity concentration)

# count of solved cases: 5
Oc1cc(Cl)ccc1Cl : Inconclusive inhibitor
NS(=O)(=O)c1cc2c(cc1Cl)NCNS2(=O)=O [Hydrochlorothiazide] : Inactive
O=C(c1ccc(O)cc1)c1ccc(O)cc1O [2,4,4'-Trihydroxybenzophenone] : Inactive
CC(=O)O[C@H]1CC[C@@]2(C)C(=CC[C@@H]3[C@@H]2CC[C@]2(C)C(C(C)=O)=CC[C@@H]32)C1 [Dehydropregnenolone acetate] : Inactive
C[C@]12CC[C@H]3[C@@H](CCC4=CC(=O)CC[C@@]43C)[C@@H]1CC[C@@H]2C(=O)O : Inactive

Enquiry: Observed CYP2C19 AC50 (half-maximal activity concentration) on human CYP2C19 (Homo sapiens) for `O=C(O)Cc1cc(I)c(Oc2cc(I)c(O)c(I)c2)c(I)c1` , please.
Return: Inactive

Enquiry: What is its CYP2C19 AC50 (half-maximal activity concentration) for human CYP2C19 (Homo sapiens)? Entry: C[C@]12CC[C@H]3[C@@H](CCC4=CC(=O)CC[C@@H]43)[C@@H]1CC[C@@H]2OC(=O)CCC1CCCCC1 [Nandrolone cyclohexylpropionate]
Return: Inconclusive inhibitor

Enquiry: // fetch human CYP2C19 (Homo sapiens) CYP2C19 AC50 (half-maximal activity concentration) for `Cc1ccc2ccccc2n1`
Return: Inactive

Enquiry: Quick check: CYP2C19 AC50 (half-maximal activity concentration) on human CYP2C19 (Homo sapiens), item `COC(=O)Nc1nc2ccc(C(=O)c3ccccc3)cc2[nH]1` ?
Return: Inactive
